Source: patent EP2128158A1

Molecular target: FXR ligand binding domain (Homo sapiens)
Sequence (Q96RI1 187-472 isoform Q96RI1-2): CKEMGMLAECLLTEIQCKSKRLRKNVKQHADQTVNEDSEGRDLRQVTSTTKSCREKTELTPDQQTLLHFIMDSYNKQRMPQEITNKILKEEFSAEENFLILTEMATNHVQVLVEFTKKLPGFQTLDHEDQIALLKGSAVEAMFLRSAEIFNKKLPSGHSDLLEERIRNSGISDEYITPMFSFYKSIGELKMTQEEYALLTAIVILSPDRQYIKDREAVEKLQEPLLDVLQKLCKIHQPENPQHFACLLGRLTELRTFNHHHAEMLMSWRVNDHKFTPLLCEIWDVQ
Experiment: Mammalian one hybrid (M1H) assay, Gal4 promoter driven transactivation in HEK293 cells
Conditions: Gal4-FXR LBD, 16 hours incubation, dual luciferase, read-out: M1H assay EC50 (±sd)
Binary label based on EC50 with cut-off 60 nM: below gives met, not below gives not met.

# example entries with known answers
{"columns": ["Compound", "Classification"],
 "data": [
  ["CC(C)c1onc(-c2c(Cl)cccc2Cl)c1COc1ccc(N(C)Cc2cccc(C(=O)O)c2)c(C(F)(F)F)n1 [Compound C, reference compound]", "not met"],
  ["Cc1cc(CN(C)c2ccc(OCc3c(-c4c(Cl)cccc4Cl)noc3C3CC3)nc2C(F)(F)F)cc(C)c1C(=O)O", "met"],
  ["Cc1cc(CN(C)c2ccc(OCc3c(-c4c(Cl)cccc4Cl)noc3C3CC3)nc2C(F)(F)F)ccc1C(=O)O", "met"],
  ["CN(Cc1ccc(C(=O)O)cc1)c1ccc(OCc2c(-c3c(Cl)cccc3Cl)noc2C2CC2)nc1C(F)(F)F", "met"]
]}

Alright, here's another compound for you.
Just wondering, is EC50 of CC(C)c1onc(-c2c(Cl)cccc2Cl)c1COc1ccc(N(C)Cc2ccc(C(=O)O)cc2)c(C(F)(F)F)n1 [Compound B, reference compound] below 60 nM?
not met

---

Target: human FXR alpha ligand binding domain (Homo sapiens)
Construct: made in house; host or cells: E. coli BL21(DE3), vector pDEST15
Sequence (Q96RI1 187-472 isoform Q96RI1-2): as above
Test: FRET activity assay (ligand mediated FXR-LBD / SRC-1 cofactor peptide interaction, LANCE)
Format: biochemical
Details: GST-tagged FXR-LBD, biotinylated SRC-1 peptide 676-700; read-out: FRET assay EC50 (±sd)
Reported EC50 values follow for various molecules
Answer with a number only, understood to be in nM.

Here is how some molecules turned out for EC50.
{"columns": ["Molecule", "Unit String", "EC50"],
 "data": [
  ["Cc1cc(CN(C)c2ccc(OCc3c(-c4c(Cl)cccc4Cl)noc3C3CC3)nc2C(F)(F)F)ccc1C(=O)O", "nM", 7.7],
  ["Cc1cc(CN(C)c2ccc(OCc3c(-c4c(Cl)cccc4Cl)noc3C3CC3)nc2C(F)(F)F)cc(C)c1C(=O)O", "nM", 11.5]
]}

According to the records, this molecule CC(C)c1onc(-c2c(Cl)cccc2Cl)c1COc1ccc(N(C)Cc2ccc(C(=O)O)cc2)c(C(F)(F)F)n1 [Compound B, reference compound] displays EC50 of 17
